The reported numbers originate from PubChem BioAssay (NCI).

Answer each item with its documented TGI.
test system: SN12C renal; assay: NCI tumour cell line growth inhibition, 48 h

compound=NC(=O)c1cnc(N[C@@H]2CCCC[C@@H]2N)nc1Nc1cccc(-n2nccn2)c1 measure=TGI endpoint_value="17.6 µM"
compound=Cc1ccc(Cl)c2c(=O)cc(-c3ccccc3)[nH]c12 measure=TGI endpoint_value="> 100 µM"
compound=COC(=O)C(CCS(=O)(=O)CC(=O)C(=O)Nc1cccc(C(C)=O)c1)C(=O)OC measure=TGI endpoint_value="> 100 µM"
compound=O=C(/C=C/c1ccc(OCC(=O)N2CCN(c3ccccc3)CC2)cc1)c1ccc(Cl)cc1 measure=TGI endpoint_value="> 100 µM"
compound=O=c1cc(C(F)(F)F)c2cc3c(cc2o1)NCCC3 measure=TGI endpoint_value="> 100 µM"

Please give TGI for each item listed below.
1. Nc1ccccc1C#C/C=C\C#Cc1ccccc1C(F)(F)F
2. CC(=O)c1cc(S(=O)(=O)c2ccc(O)c(C(C)=O)c2)ccc1O
3. CC(=O)O[C@H]1C(=O)[C@@]2(C)C(C(OC(=O)c3ccccc3)[C@]3(O)CC(OC(=O)[C@H](OC(=O)CCC(=O)O)C(NC(=O)c4ccccc4)c4ccccc4)C(C)=C1C3(C)C)C1(OC(C)=O)COC1C[C@@H]2OC(=O)CCC(=O)O (stereo partly specified)
4. C[C@]12CCC3[C@@H](C[C@@H]4SC(Nc5ccccc5)=N[C@@]45CC(=O)CC[C@]35C)[C@@H]1CCC2=O (stereo partly specified)
5. O=C1/C(=C/c2cccs2)N=C(c2ccccc2)N1c1nc2ccccc2s1
6. Cc1c(/C=N/NS(=O)(=O)c2ccccc2)no[n+]1[O-]

Result string:
9.45 µM
> 100 µM
> 100 µM
25.3 µM
> 100 µM
> 100 µM
